The origin of these recorded values is PubChem BioAssay (NCI).

tested on: SR leukemia; assay: NCI tumour cell line growth inhibition, 48 h
endpoint-name: TGI

[in] Would you kindly share the measured TGI for Cc1cn(CC2=NC3CCCCC3N2)c(=O)[nH]c1=O (stereo unspecified) ?
[out] > 100 µM

[in] Follow-up item: Clc1ccc(-c2nc3c(-c4ccccc4)nc(-c4ccccc4)cn3c2-c2ccc(Cl)cc2)cc1
[out] > 100 µM

[in] Param item: CC(=O)Nc1ncc2c(n1)-c1ccccc1OC2c1ccccc1 (stereo unspecified)
[out] > 100 µM

[in] Again, but for CC(O)CC(=O)CO[C@H]1[C@H](O)[C@@H](O)[C@@H](O)[C@@H]2NC(=O)c3c(cc4c(c3O)OCO4)[C@H]21 (stereo partly specified)
[out] 0.125 µM

[in] Input CCCCCCCCCCCCNC(=O)N[C@H](C(=O)N[C@H]1/C=C/CCNC(=O)/C=C/[C@H](C)NC1=O)C(C)C
[out] 0.958 µM

----------
system: U251 CNS
Your response should consist of one outcome taken from True (active), False (inactive)

COC1=CC(c2ccc[nH]2)=N/C1=C\c1[nH]c(C)c(C(=O)Oc2ccccc2)c1C ... True
NC(=O)c1cc(I)ccc1NC(=O)/C=C/c1ccccc1Cl ... False
[N-]=[N+]=NCCCn1c2c(c3ccc([N+](=O)[O-])cc3c1=O)C(=O)c1cc(I)ccc1-2 ... False
Cc1cc(I)cc(CNCCN2CCOCC2)c1O ... False

Please examine the following record next.
[in] Could you check what this test reported for CCC1=C[C@@H]2CN(C1)Cc1c([nH]c3ccccc13)[C@@](C(=O)OC)(c1cc3c(cc1OC)N(C)[C@H]1[C@@](O)(C(=O)OC)[C@H](OC(C)=O)[C@]4(CC)C=CCN5CC[C@]31[C@@H]54)C2 ?
[out] True

----------
system: OVCAR-3 ovarian; assay: NCI tumour cell line growth inhibition, 48 h
The following compounds are listed with their measured TGI values.

# example entries with known answers
Cc1ccc(NC(=O)CC(=O)N2N=C(N3CCCCC3)CC2c2ccccc2)cc1 (stereo not given) ... > 100 µM
O=C(/C=C\c1cc(Br)ccc1O)/C=C/c1cc(Br)ccc1O ... 1.13 µM
O=[N+]([O-])c1ccc(NNN=Nc2ccc(-c3nc4ccccc4[nH]3)cc2)c([N+](=O)[O-])c1 ... > 100 µM
O=C(O)CCNc1ncc2c(n1)-c1ccccc1OC2 ... > 100 µM
Fc1ccc(Oc2nc3ccccc3nc2-c2ccccc2)cc1 ... > 100 µM

[in] Any idea what TGI was measured for Cc1ccc(S(=O)(=O)OCC(=O)Nc2ccc(C(=O)O)c(O)c2)cc1 ?
[out] 44.5 µM

[in] Please do the same for N#Cc1sc2c(c1OC(=O)c1ccc(Cl)cc1)c(=O)n(-c1ccccc1)c(=S)n2-c1ccccc1 as well.
[out] 64.2 µM

[in] # repeat for C=CCOC1CC(n2cnc3c(N)ncnc32)OC1CO (stereo not given)
[out] > 100 µM

[in] Next compound up: CNCCCn1c2c(c3ccc(Cl)cc3c1=O)C(=O)c1cc(OC)cnc1-2
[out] 2.78 µM

[in] Please answer likewise for Cc1cc(O)c2c(c1)C(C1OC(CO)C(O)C(O)C1O)c1cc(O)cc(O)c1C2=O (stereo not given)
[out] > 100 µM

----------
test system: OVCAR-5 ovarian; assay: NCI tumour cell line growth inhibition, 48 h
Entries and their measured TGI follow.

COc1ccc(C(=O)N2CCN(c3ccc4c(c3)OCC(=O)N4)CC2)cc1OC ... > 100 µM
Nc1c(C(=O)c2ccc(C#CCN3CCOCC3)cc2)cnn1-c1ccc(F)cc1 ... > 25 µM
O=C(Nc1ccc(Oc2ccc(NC(=O)Nc3ccccc3Cl)cc2)cc1)Nc1ccccc1Cl ... > 100 µM
O=c1c2ccccc2nc2n1CCc1c-2[nH]c2cc3c(cc12)OCO3 ... > 25 µM

[in] I would be grateful if you could share the reported TGI for CN(C)c1ccc(/C=C(\C#N)c2ccccc2)cc1 .
[out] > 100 µM

[in] Could you do the same for Cc1cc(O[C@@H]2O[C@@H](C)[C@H](O)[C@@H](O)[C@H]2O)c2c3c(c(O[C@@H]4O[C@@H](C)[C@H](O)[C@@H](O)[C@H]4O)cc2c1)C(=O)c1c(O)cccc1C3=O , please?
[out] > 30 µM

[in] Another: COC1=CC(c2ccc[nH]2)=N/C1=C\c1[nH]c(C)c(C(=O)Oc2ccccc2)c1C
[out] 1.99 µM

[in] What about Fc1ccc(Nc2ncc(-c3cc(F)c(Cl)cc3Cl)s2)cc1Cl ?
[out] 30.5 µM

[in] Then CSCCC(NC(=O)Cc1ccc(C(=O)c2ccccc2)cc1)C(=O)N1CCN(CCCCN2c3ccccc3Sc3cc(N=[N+]=[N-])ccc32)CC1 (stereo not given) ?
[out] > 100 µM

[in] One more compound: CC1NC(C(=O)O)Cc2cc(O)c(O)cc21 (stereo not given)
[out] > 100 µM

----------
Documented TGI across a set of molecules
system: MOLT-4 leukemia; assay: NCI tumour cell line growth inhibition, 48 h

CC(NC(=O)C(N)CC(=O)O)C(=O)OC12CC3CC(CC(C3)C1)C2 (configuration not stated) ... > 100 µM

[in] Reported TGI for O=C(O)CCNc1ncc2c(n1)-c1ccccc1OC2 : what is it?
[out] > 100 µM

[in] Proceed to C=C1C2C[C@@H]3O[C@H]4C[C@H]5O[C@@]6(C[C@@H]7O[C@]8(C[C@H](C)[C@@H]9O[C@@H]%10CC(C=O)O[C@@H]%10C[C@@H]9O8)C[C@H](C)[C@@H]7O6)C[C@H]5O[C@H]4[C@H](C)[C@H]3OC(=O)C[C@H]3CC[C@@H]4OC5[C@H]6O[C@]7(CC[C@H]8CC(=C)[C@H](CC[C@@H](C[C@H]1C)O2)O8)CC6O[C@@H]5[C@@H](O7)[C@H]4O3 (some centres not stated)
[out] > 1 µM

[in] Entry to check: CCOc1cc(/C=N/c2nc3cc4sc(/N=C/c5ccc(O)c(OCC)c5)nc4cc3s2)ccc1O
[out] > 100 µM

[in] Next: COc1ccc(N=C(CS(=O)c2ccc(C)cc2)C(F)(F)F)cc1 (configuration not stated)
[out] > 100 µM

[in] What do you get for O=C(CN1CCN(CCN2C(=O)c3cccc4cccc(c34)C2=O)CC1)Nc1ccc2ncsc2c1 ?
[out] 15.3 µM

[in] Next record, please: CCOC(=O)NC(Nc1ccc(S(=O)(=O)Nc2ccc(OC)nn2)cc1)(C(F)(F)F)C(F)(F)F
[out] 49.5 µM

----------
Each entry below lists one item and its recorded TGI value.
system: HOP-62 NSCLC; test: NCI tumour cell line growth inhibition, 48 h

COc1cccc(C2c3cc4c(cc3OC(NNC(N)=O)C2C)OCO4)c1O (stereo not given) ... 54 µM
Cc1ccc2nc(Sc3c([N+](=O)[O-])ncn3C)[nH]c2c1 ... > 100 µM
N#CC(C(=O)CCC(=O)Nc1ccc(Cl)cc1)c1ccc(Cl)cc1 (stereo not given) ... > 100 µM
Cc1cc(O)c2c(c1)C(C1OC(CO)C(O)C(O)C1O)c1cc(O)cc(O)c1C2=O (stereo not given) ... > 100 µM

[in] Hello, I am looking for reported TGI with HOP-62 NSCLC for N#Cc1sc2c(c1OC(=O)c1ccc(Cl)cc1)c(=O)n(-c1ccccc1)c(=S)n2-c1ccccc1 . Could you help?
[out] 82.7 µM

[in] How about O=C1CNc2cc(N3CCOCC3)ccc2N1 ?
[out] > 100 µM

[in] Queued: C=C1C2C[C@@H]3O[C@H]4C[C@H]5O[C@@]6(C[C@@H]7O[C@]8(C[C@H](C)[C@@H]9O[C@@H]%10CC(C=O)O[C@@H]%10C[C@@H]9O8)C[C@H](C)[C@@H]7O6)C[C@H]5O[C@H]4[C@H](C)[C@H]3OC(=O)C[C@H]3CC[C@@H]4OC5[C@H]6O[C@]7(CC[C@H]8CC(=C)[C@H](CC[C@@H](C[C@H]1C)O2)O8)CC6O[C@@H]5[C@@H](O7)[C@H]4O3 (stereo not given in full)
[out] > 1 µM

[in] And what about the compound COc1ccc(N2C(=O)C(=O)N(C)C2=O)c2ccccc12 ?
[out] > 10 µM

[in] Quick one: O=C(O)CCC(=O)Oc1ccc(O)c2c1CCCC2=O
[out] > 100 µM

[in] Consider next the compound CO[C@H](C(=O)O[C@H]1C(=O)N2CC[C@@H]3CCC[C@H]1C32C)c1ccccc1 (stereo not given in full) in the same way.
[out] > 100 µM

----------
Let's look at some molecules and their measured TGI.
system: MDA-MB-231 breast; assay: NCI tumour cell line growth inhibition, 48 h
Provide the reading as a plain figure in µM.

O=C(NC1CCN(Cc2ccccc2)CC1)c1cccc(I)c1 ... 32.1

[in] Record request: TGI value, item CC(=O)OC1CC2C(C)(C)CCC[C@]2(C)C2=C1C(O)=C(C(C)C)C(=O)C2=O (stereo partly specified)
[out] 3.74

[in] Let us now turn to CCOC(=O)C1=C(C)NC(C)=C(C(=O)OCCNC(=O)c2ccc(N=[N+]=[N-])cc2)C1c1ccccc1C(F)(F)F (stereo unspecified)
[out] 21.5
